biological target: human HDAC1 enzyme (Homo sapiens, UniProt Q13547); construct: purchased BPS Bioscience; test: Human HDAC1 enzyme assay (Class I HDACs); format: biochemical; conditions: Table 8; recombinant human HDAC1; read-out: IC50 (nM) (HDAC1)
Sequence (Q13547 whole entry): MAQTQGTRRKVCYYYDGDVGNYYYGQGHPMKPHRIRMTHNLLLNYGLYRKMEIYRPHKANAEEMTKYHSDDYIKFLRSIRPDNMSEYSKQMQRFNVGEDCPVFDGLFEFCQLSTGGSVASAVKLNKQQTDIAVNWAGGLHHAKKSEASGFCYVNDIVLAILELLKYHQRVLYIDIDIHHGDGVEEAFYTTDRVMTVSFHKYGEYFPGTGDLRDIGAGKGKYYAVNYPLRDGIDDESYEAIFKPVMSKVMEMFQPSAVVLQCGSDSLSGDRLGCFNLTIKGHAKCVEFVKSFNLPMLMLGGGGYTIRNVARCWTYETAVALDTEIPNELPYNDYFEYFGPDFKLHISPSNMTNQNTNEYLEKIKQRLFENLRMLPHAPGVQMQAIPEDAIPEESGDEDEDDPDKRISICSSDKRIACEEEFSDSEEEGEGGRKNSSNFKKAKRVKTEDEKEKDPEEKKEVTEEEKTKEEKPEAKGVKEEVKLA
Could you please report measured IC50 for the items listed next?
Numbers only, in nM.

molecule | systemName | measuredProperty | result
O=C(NO)c1ccc(NC(=O)C2(c3ccc(Br)cc3)CCCC2)cc1-c1ccccc1 | human HDAC1 enzyme (Homo sapiens, UniProt Q13547) | IC50 | 4900

Need IC50 for each of these molecules.
1. Cc1nc2ccccc2c(=O)n1Cc1ccc(C(=O)NO)c(-c2ccc(F)cc2)c1
2. O=C(NCc1ccc(C(=O)NO)c(Br)c1)Nc1cccc2cccnc12 [Example 1, reference compound]
3. Cc1cc(F)ccc1-c1cc(Cn2c(C)nc3ccccc3c2=O)ccc1C(=O)NO

1: 3200; 2: 3840; 3: 4210

---

Hi there, I'd appreciate the recorded log10 of IC50 for every entry that follows.
molecular target: human HDAC7 enzyme (Homo sapiens, UniProt Q8WUI4); construct: purchased Reaction Biology Corp; assay: Human HDAC7 enzyme assay (Class IIa HDACs); assay type: biochemical; settings: Table 8; recombinant human HDAC7
Sequence (Q8WUI4 whole entry): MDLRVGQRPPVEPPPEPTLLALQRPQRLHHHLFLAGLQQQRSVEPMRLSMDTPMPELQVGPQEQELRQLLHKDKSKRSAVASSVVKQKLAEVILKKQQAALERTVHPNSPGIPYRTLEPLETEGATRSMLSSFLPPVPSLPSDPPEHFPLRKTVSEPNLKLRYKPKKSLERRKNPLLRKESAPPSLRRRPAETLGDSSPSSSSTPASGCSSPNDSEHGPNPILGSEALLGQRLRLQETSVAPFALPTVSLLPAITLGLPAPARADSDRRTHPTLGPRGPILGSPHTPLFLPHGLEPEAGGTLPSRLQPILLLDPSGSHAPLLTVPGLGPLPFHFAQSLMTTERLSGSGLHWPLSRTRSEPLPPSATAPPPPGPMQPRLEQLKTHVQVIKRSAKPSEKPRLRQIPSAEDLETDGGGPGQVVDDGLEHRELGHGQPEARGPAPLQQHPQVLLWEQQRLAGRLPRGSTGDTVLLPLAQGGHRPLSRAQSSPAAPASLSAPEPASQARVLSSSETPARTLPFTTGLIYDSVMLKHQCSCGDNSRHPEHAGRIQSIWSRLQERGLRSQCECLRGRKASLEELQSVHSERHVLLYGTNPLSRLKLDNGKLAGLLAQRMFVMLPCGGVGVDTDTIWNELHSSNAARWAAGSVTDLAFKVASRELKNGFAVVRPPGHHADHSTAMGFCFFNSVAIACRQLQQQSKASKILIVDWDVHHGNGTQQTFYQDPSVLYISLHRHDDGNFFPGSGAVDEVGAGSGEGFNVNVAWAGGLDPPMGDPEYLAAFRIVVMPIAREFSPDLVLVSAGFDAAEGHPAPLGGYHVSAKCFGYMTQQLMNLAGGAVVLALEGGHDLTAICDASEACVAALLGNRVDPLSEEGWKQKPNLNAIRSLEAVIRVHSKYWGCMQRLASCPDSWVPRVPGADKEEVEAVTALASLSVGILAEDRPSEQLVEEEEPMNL
Log10 applied to IC50; unit prior to transform: nM.

Before answering, review these 3 worked examples.
molecule | systemName | result
CC(C)C(C(=O)Nc1ccc(C(=O)NO)c(-c2ccccc2)c1)c1ccccc1 (centres unmarked) | human HDAC7 enzyme (Homo sapiens, UniProt Q8WUI4) | 2.74
O=C(NO)c1ccc(NC(=O)C2(C(=O)Nc3ccccc3)CC2)cc1-c1ccccc1 | human HDAC7 enzyme (Homo sapiens, UniProt Q8WUI4) | 2.38
COc1ccc(Nc2ccc(C(=O)NO)c(-c3ccccc3)c2)cc1 | human HDAC7 enzyme (Homo sapiens, UniProt Q8WUI4) | 1.79

Record log10 of IC50 for all entries; do not skip any.
1. O=C(NCc1ccc(C(=O)NO)c(-c2ccc(F)cc2)c1)Nc1cccc2cccnc12
2. Cc1nc2ccccc2c(=O)n1Cc1ccc(C(=O)NO)c(-c2ccccc2)c1
3. C[C@H](N)C(=O)NCc1ccc(C(=O)NO)c(-c2ccccc2)c1

2.07
0.86
3.50

Please state log10 of IC50 for every molecule in the list that follows.
1. CC1C(=O)Nc2ccccc2C(=O)N1Cc1ccc(C(=O)NO)c(-c2ccccc2)c1 (centres unmarked)
2. O=C(NO)c1ccc(NC(=O)C2(C(=O)Nc3ccccc3)CCCCC2)cc1-c1ccccc1

1: 1.87; 2: 2.23

---

biological target: human HDAC7 enzyme (Homo sapiens, UniProt Q8WUI4); construct: purchased Reaction Biology Corp; test: Human HDAC7 enzyme assay (Class IIa HDACs); assay type: biochemical; conditions: Table 8; recombinant human HDAC7
Can you tell me IC50 for the items I'm about to list?
Numbers only, in nM.

For each of the compounds below, note its IC50.
1. CCCCCCNC(=O)NCc1ccc(C(=O)NO)c(-c2ccccc2)c1
2. O=C(NCc1ccc(C(=O)NO)c(-c2cccc(Cl)c2)c1)Nc1cccc2cccnc12
3. O=C(NO)c1ccc(NC(=O)C2(c3c[nH]c(-c4ccc([N+](=O)[O-])cc4)n3)CCCC2)cc1-c1ccccc1
4. O=C(NCc1ccc(C(=O)NO)c(-c2ccccc2)c1)c1ccc[nH]1

1. 196
2. 886
3. 625
4. 81

Please state, for each entry, its recorded IC50.
1. O=C(O)c1ccc(Nc2ccc(C(=O)NO)c(-c3ccccc3)c2)cc1
2. O=C(NCc1ccc(C(=O)NO)c(-c2ccccc2)c1)c1cc2ccccc2[nH]1

[68, 59]

Recorded values, source patent US12637433B2.
